Here the recorded cytotoxicity at 70.5 h is given for each entry.
Experiment: Human HepG2 cell viability assay in 384 well format
Format: toxicity, cell-based
Design: dose 125 nL, time 70.5 hour; concentration not given beside the values
Conditions: HepG2 cells, read-out: Inhibition
Reply with a number, then the unit it belongs to.

Note down cytotoxicity at 70.5 h recorded for Cn1cc(CCNC(=O)N2CCCC(c3nncn3C)C2)cn1 (stereo unspecified)
-4.93%

====

# cytotoxicity at 70.5 h listing for each entry below
Assay: Human HepG2 cell viability assay in 384 well format
Type: toxicity, cell-based
Parameters: dose 125 nL, time 70.5 hour; concentration not given beside the values
Conditions: HepG2 cells, read-out: Inhibition
// return numeric value only (unit: %, not printed)

Worked examples follow.
Answer with the recorded cytotoxicity at 70.5 h for the compound listed here: COCCOc1ccc(NC(=O)C2CC(=O)N(C3CC3)C2)cn1 (centres undefined)
-4.78

Determine from records and report cytotoxicity at 70.5 h for "NC(=O)c1cncc(N2CCN(Cc3cccc4nsnc34)CC2)n1"
-5.47

Determine its reported cytotoxicity at 70.5 h: "CCc1nnc2n1CCN(C(=O)c1cc(Br)c[nH]1)C2"
-5.11

Let me know recorded cytotoxicity at 70.5 h for "Cc1cccc(OC2CCN(C(=O)Cn3ccc4ccccc43)CC2)n1" , thanks.
-6.3

Retrieve cytotoxicity at 70.5 h measured for CC(=O)NC1CCc2ccc(S(=O)(=O)NCc3ncccc3C)cc21 (centres undefined) and print it.
39.1

Look up and state reported cytotoxicity at 70.5 h for Cc1cc(C)n(CC(C)CNC(=O)N(C)Cc2cc(C)on2)n1 (centres undefined)
-8.81

Supply cytotoxicity at 70.5 h value. Item: CC(C)(C)CC(=O)N1CSCC1C(=O)NCc1cccc(C#N)c1 (centres undefined)
15.4

Please report cytotoxicity at 70.5 h for the following compound: "Cc1cc(NCc2ccc(N3CCNC(=O)C3)cc2)nc(C)n1"
-1.91

Consider the compound "CN(CC(C)(CO)CO)C(=O)Nc1cc(Cl)cc(Cl)c1" and give its recorded cytotoxicity at 70.5 h.
-4.43

For the compound CC(=O)N(Cc1ncc(C)o1)C1CCN(Cc2ccc(F)c(F)c2)C1 (centres undefined) , give its measured cytotoxicity at 70.5 h value.
-4.3

***
Dear colleague, please send me the reported cytotoxicity at 70.5 h for Cc1noc(CCCC(=O)NC(C)c2nnc3n2CCC3)n1 (centres undefined) when you can.
-4.98

Give reported cytotoxicity at 70.5 h value for "CN(C)c1nc2ncc(Cl)cc2cc1C#N"
22

Answer with the recorded cytotoxicity at 70.5 h of Cc1ncsc1C(=O)N1CCN(Cc2ccccc2)CC1C (centres undefined) only.
2.52

Recall and state the measured cytotoxicity at 70.5 h for CC(=O)N1CCn2c(nnc2C2CCCCN2Cc2ccccc2Cl)C1 (centres undefined) .
-3.34

====

Here, each record is paired with measured cytotoxicity at 70.5 h data.
Experiment: Human HepG2 cell viability assay in 384 well format
Assay type: toxicity, cell-based
Parameters: dose 125 nL, time 70.5 hour; concentration not given beside the values
Settings: HepG2 cells, read-out: Inhibition
API: value field is a number in %; no unit string.

Below are worked cases with known answers.
Report cytotoxicity at 70.5 h for "CCCn1nc2c(cc1=O)CN(CC(=O)Nc1ccncc1)CC2"
-17.2

Return cytotoxicity at 70.5 h for the following molecule: "CCOc1ccc(-n2nc(C)c(CC(C)=O)c2C)cc1C(N)=O"
-2.04

State its cytotoxicity at 70.5 h for this molecule: "O=C(CCCN1CCOC1=O)Nc1cnn(-c2ccccc2Cl)c1"
-5.24

Return the recorded cytotoxicity at 70.5 h value; entry: Cc1cc(C)n(CC2CN(Cc3nc(C4CC4)no3)CCO2)n1 (centres undefined)
-4.87

Dear colleague, please send me the reported cytotoxicity at 70.5 h for Cn1ccnc1C(O)(CCNCc1ccco1)C(F)(F)F (centres undefined) when you can.
5.83

// switching to the query molecule
Recall and state the measured cytotoxicity at 70.5 h for "Cc1ncnc2c1CCN(Cc1nccs1)CC2" .
-5.22

====

Experiment: Human HepG2 cell viability assay in 384 well format
Type: toxicity, cell-based
Set-up: dose 125 nL, time 70.5 hour; concentration not given beside the values
Settings: HepG2 cells, read-out: Inhibition
MEASURED_QUANTITY: cytotoxicity at 70.5 h (%)
State just the number; it will be interpreted in %.

Give the value of cytotoxicity at 70.5 h reported for the following: "O=C(NCc1cc2n(n1)CCCNC2)C1(c2ccc(Cl)cc2)CCC1"
1.64

Item "O[C@@H]1C[C@@H](c2nc(-c3ccccc3)no2)N(Cc2cccnc2)C1" : provide cytotoxicity at 70.5 h
-2.41

Answer with reported cytotoxicity at 70.5 h of "Cc1ccccc1-n1cc(C2=CCN(CCn3cc[nH]c3=O)CC2)cn1"
-6.71

# return recorded cytotoxicity at 70.5 h for input CCCC(=O)NCC(=O)NC(c1ccc(Cl)cc1)C(F)(F)F (configuration not stated)
8.36

Dear colleague, please send me the reported cytotoxicity at 70.5 h for Cc1ccc2c(c1)CN(C(=O)c1ccccc1F)C(CN(C)C)CO2 (configuration not stated) when you can.
-24.7

Continuing:
Look up cytotoxicity at 70.5 h of COc1cccc(S(=O)(=O)NC2CNC(=O)C2)c1 (configuration not stated) and report it.
1.68

Give the reported cytotoxicity at 70.5 h for this molecule. COc1cc(C(=O)N2CCCC(n3ccnc3)C2)cc2c1OCCO2 (configuration not stated)
-7.87

====

Listed next: entries and their corresponding cytotoxicity at 70.5 h.
Assay: Human HepG2 cell viability assay in 384 well format
Type: toxicity, cell-based
Design: dose 125 nL, time 70.5 hour; concentration not given beside the values
Conditions: HepG2 cells, read-out: Inhibition
Write the value in % as a bare number.

Reference set, count: 6
Please look at this molecule and report its cytotoxicity at 70.5 h: COCc1cnc2n1CCN(C1CCCC1)C2C (stereo not given)
5.67

Using known records, supply cytotoxicity at 70.5 h for CCC(=O)NCC(=O)NC(Cc1ccccc1)c1sccc1C (stereo not given)
-2.67

// fetch cytotoxicity at 70.5 h given entry COCC1CN(C(=O)Cc2ccccn2)Cc2cn(CC3CC3)nc21 (stereo not given)
-14.6

Identify measured cytotoxicity at 70.5 h corresponding to CCN(CC)Cc1cc(C(=O)N2CCCC(CC)(C(=O)O)C2)c(C)o1 (stereo not given)
-3.17

For the molecule "COCc1nn(CC2CC2)c2c1CN(Cc1cccs1)CC2" , report cytotoxicity at 70.5 h.
-8.23

Answer with reported cytotoxicity at 70.5 h of "CCS(=O)(=O)N1CCC2(CC1)CC[C@@]1(C(=O)N(C)C)CN(C)C[C@@H]21"
-15.2

---
Please give the documented cytotoxicity at 70.5 h of Cn1nc(C2CCNC2)c2c(C(=O)NC3CC3)cc(C3CC3)nc21 (stereo not given)
17.5

Answer with the recorded cytotoxicity at 70.5 h for the molecule listed here: "CC(C)N(C)Cc1cncc2c1CCN(C(=O)c1ccc[nH]1)C2"
-1.2

Return the recorded cytotoxicity at 70.5 h value; entry: "CC1=CC(C)(C)N(CN2C(=O)c3ccccc3C2=O)c2ccc(C)cc21"
7.06

Hello, please tell me recorded cytotoxicity at 70.5 h for this one: "CN(C)C(=O)CN1C(=O)CCC12CCN(Cc1ccsc1)CC2"
-15.7

In one line, give reported cytotoxicity at 70.5 h of the entry Cc1cc(CNCC2Cn3nnc(C)c3CO2)oc1C (stereo not given) .
-7.06

====

Assay: Human HepG2 cell viability assay in 384 well format
Assay type: toxicity, cell-based
Parameters: dose 125 nL, time 70.5 hour; concentration not given beside the values
Conditions: HepG2 cells, read-out: Inhibition
Reported values of cytotoxicity at 70.5 h for individual entries
Express your answer in %, writing the number without its unit.

Worked cases, cytotoxicity at 70.5 h given:
Could you please provide reported cytotoxicity at 70.5 h for "CSc1ccc(OCCN2CCC(n3cncn3)CC2)cc1" ? Thanks!
-13.7

Identify measured cytotoxicity at 70.5 h associated with "O=c1n(Cc2ccccc2F)nc2ncccn12"
21

Quote cytotoxicity at 70.5 h reported for "COc1c[nH]c(C(=O)N2CCN(c3ccccc3)CC2)cc1=O" please.
-11.3

Fill in reported cytotoxicity at 70.5 h for this entry: "CN(CCc1nc2cc(Cl)ccc2[nH]1)C(=O)c1ncn[nH]1"
-9.76

Return value of cytotoxicity at 70.5 h for input CC(NC(=O)CCn1cncn1)c1nnc2n1CCCCC2 (stereo not drawn) , no commentary.
-13.5

Look up and state reported cytotoxicity at 70.5 h for Cc1ccc(C(=O)N2CCCC3(CCCC(=O)N3C)C2)cc1F (stereo not drawn)
-4.57

New cases:
Kindly indicate its recorded cytotoxicity at 70.5 h. Item: "O=C(c1cccnc1)N1C[C@@H]2CN(CCN3CCCC3)C(=O)[C@@H]2C1"
-6.24

Consider the compound COc1c(C)cnc(CN2CCCC(Cn3nc(C)nc3C)C2)c1C (stereo not drawn) . State its measured cytotoxicity at 70.5 h.
-3.59

Quickly give me recorded cytotoxicity at 70.5 h for CC(=O)NC1CCCN(C(=O)Nc2cccnc2-n2cccn2)C1 (stereo not drawn)
-6.08

Look up and state reported cytotoxicity at 70.5 h for CCn1cc(C(=O)N2CCCC3(CCC(=O)N(CCC(C)C)C3)C2)cn1 (stereo not drawn)
-5.07

Look up cytotoxicity at 70.5 h of "Cc1cc2n(n1)CCN(c1nc(N(C)C)nc3c1CCNC3)C2" and report it.
14.4

Note cytotoxicity at 70.5 h for the compound shown: "CC(C)CN1CCCn2nc(CNC(=O)CN3CCOC3=O)cc2C1"
-7.41

Provide one value: measured cytotoxicity at 70.5 h of "CCCNC(=O)CCNC(=O)N1CCC(=Cc2ccccc2)CC1"
-4.61

Origin of values: ChEMBL document CHEMBL3507680
